PROTOCOL DESCRIPTION: inhibitors of poly I:C-induced TLR3 signaling, primary screen, cell-based, poly I:C stimulus, luciferase, 10K MLSCN set (AID 602277)
EXPERIMENTAL PARAMETERS: HEK293-TLR3 RL24 IRF3 luciferase reporter, at 10 µM, active compounds read high
Categorize each record by its inhibition using low end (below 10%), middle (10% to below 20%), high end (20% or more)

COMPOUND	CLASSIFICATION
CCOc1ccc(C2C=C(c3ccc(F)cc3)Nc3ncnn32)cc1 (centres undefined)	middle
Cc1cc(NS(=O)(=O)Cc2ccccc2)cc(C)c1OCC(=O)N1CCOCC1	middle
CCOC(=O)N1CCN(C(=O)CSc2nnc(-c3cccc(Cl)c3)o2)CC1	middle
CC(C)(C)C(=O)Cn1c[n+](N)cn1	high end
Cn1c(=O)c2c(ncn2CC(=O)OCC(=O)NC2CCCc3ccccc32)n(C)c1=O (centres undefined)	high end
CCOC(=O)c1cc(-c2ccc(N)cc2)sc1N	low end
CCOC(=O)C1CCCN(C(=O)c2cc3c(=O)n4cccc(C)c4nc3n2C)C1 (centres undefined)	high end
COc1cc2[nH]c(=O)c(C(=O)NCCCN3CCCCC3)c(O)c2cc1OC	low end
CCC1CCCCN1CCCNC(=O)CC1Oc2ccc(C)cc2NC1=O (centres undefined)	high end
CCN(CC)c1nc(N(CC)CC)[nH]c(=O)n1	low end
COCCn1c(=N)c(C(=O)NCCc2ccccc2)cc2c(=O)n3cccc(C)c3nc21	high end
CC1CCN(c2nc3c(c(=O)n(C)c(=O)n3C)n2Cc2ccccc2)CC1	middle
COc1cc(NC(=O)C2CCCN2S(=O)(=O)c2cccc3cccnc23)cc(OC)c1OC (centres undefined)	high end
Cc1ccc(-c2noc(CN3C(C)CCCC3C)n2)cc1 (centres undefined)	low end
CCOC(=O)C1=C(N)OC2=C(C(=O)CC(C)(C)C2)C1c1ccco1 (centres undefined)	low end
COCCCn1c(SCC(=O)Nc2cccc(C)n2)nnc1-c1ccco1	middle
CCN(CC)CCn1c2ccccc2c2nc(C)sc21	high end
COc1cc(OC)cc(C(=O)N2c3ccc(F)cc3CCC2C)c1 (centres undefined)	high end
CNC(=O)CN(c1ccc(C(C)C)cc1)S(C)(=O)=O	high end
O=C(CN1C(=O)CCSc2ccccc21)Nc1ccccc1	low end
O=C(CSc1n[nH]c(-c2ccco2)n1)Nc1sc2c(c1C(=O)Nc1ccccc1)CCCC2	high end
O=C(Cn1cc2c(n1)CCCC2)NCCc1ccccc1	high end
COc1ccc(OCCN2C(=O)NC(C)(c3ccc(C)cc3)C2=O)cc1 (centres undefined)	low end
O=C(C1CC1)N1CCc2cc(Br)cc(S(=O)(=O)N3CCOCC3)c21	high end
COc1ccc(C(=O)NCc2ccccc2OC)cc1	low end
Cn1nnc2cc(C(=O)N3CCCCCC3)ccc21	middle
CCOC(=O)C(C)Sc1nnc(Cc2cc(=O)[nH]c(=O)[nH]2)n1-c1ccc(Cl)cc1 (centres undefined)	middle

---

SYSTEM TESTED: Muscarinic acetylcholine receptor M4 (Homo sapiens)
PROTOCOL DESCRIPTION: compounds altering M4/GIRK thallium flux, either direction, primary screen, M4 allosteric agonist project, cell-based, HEK293 M4/GIRK, BTC-AM (AID 625);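 also: thallium influx through GIRK channels coupled to M4 in HEK293 cells with BTC-AM dye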
EXPERIMENTAL PARAMETERS: at 10 µM, actives lie on both sides
Calls of active or inactive are those of the source.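 The calls were made as follows: active = fluorescence slope after compound addition differing from the mean of all tested samples at 99.7% confidence, mostly higher but some lower; inactive = the rest.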
Reported fluorescence slope by item:

COMPOUND	fluorescence slope
COc1ccccc1C(=O)NCC(=O)n1nc(C)cc1C	0.0067 (inactive)
COc1ccc(CCn2c(C)cc3c(c2=O)C(c2ccc4c(c2)OCO4)C(C#N)=C(N)O3)cc1OC (stereo not given)	0.00505 (inactive)
O=C(Cc1ccccc1)Nc1cccc(-c2nnc(-c3ccco3)o2)c1	0.00851 (inactive)
COc1ccc(CC(=O)OCN2C(=O)c3ccccc3C2=O)cc1	0.00563 (inactive)
CCCn1nnc(NC(=O)c2cc(Br)cc(Br)c2OC)n1	0.00469 (inactive)
